The origin of these recorded values is paper PMC8954382.

Listing: CMI of selected molecules
System: Enterococcus faecium ATCC 19434
Assay: Antibacterial activity, MIC by broth microdilution
Assay type: cell-based
Details: Gram +

Consider the worked cases shown below.
Query: CMI; subject: CCCCCCCCCCNC(=O)C(O)C(O)C(=O)NCC(OC1OC(CN)C(O)C1O)C1OC(n2ccc(=O)[nH]c2=O)C(O)C1O [Compound (S,S)-3a]
> 128 µg/mL

Query: CMI; subject: CCCCCCCCCCNc1c(NCC(OC2OC(CN)C(O)C2O)C2OC(n3ccc(=O)[nH]c3=O)C(O)C2O)c(=O)c1=O (centres unmarked)
> 128 µg/mL

Query: CMI; subject: CCCCCCCCCCNC(=O)C(O)C(O)C(=O)NCC(OC1OC(CN)C(O)C1O)C1OC(n2ccc(=O)[nH]c2=O)C(O)C1O [(R,R)-3b]
> 128 µg/mL

Query: CMI; subject: CN[C@H](CC(C)C)C(=O)N[C@H]1C(=O)N[C@@H](CC(N)=O)C(=O)N[C@H]2C(=O)N[C@H]3C(=O)N[C@H](C(=O)N[C@H](C(=O)O)c4cc(O)cc(O)c4-c4cc3ccc4O)[C@H](O)c3ccc(c(Cl)c3)Oc3cc2cc(c3O[C@@H]2O[C@H](CO)[C@@H](O)[C@H](O)[C@H]2O[C@H]2C[C@](C)(N)[C@H](O)[C@H](C)O2)Oc2ccc(cc2Cl)[C@H]1O [Vancomycin, reference compound]
0.5 µg/mL

Query: CMI; subject: CCCCCCCCCCS(=O)(=O)NCC(OC1OC(CN)C(O)C1O)C1OC(n2ccc(=O)[nH]c2=O)C(O)C1O (centres unmarked)
> 128 µg/mL

Others:
Query: CMI; subject: CCN1CCN(C(=O)N[C@@H](C(=O)N[C@@H]2C(=O)N3[C@@H]2SC(C)(C)[C@@H]3C(=O)O)c2ccccc2)C(=O)C1=O [Piperacillin, reference compound]
4 µg/mL

Query: CMI; subject: CCCCCCCCCCC(=O)NCC(OC1OC(CN)C(O)C1O)C1OC(n2ccc(=O)[nH]c2=O)C(O)C1O (centres unmarked)
128 µg/mL

Query: CMI; subject: CCCCCCCCCCNC(=O)NC[C@H](O[C@@H]1O[C@H](CN)[C@@H](O)[C@H]1O)[C@H]1O[C@@H](n2ccc(=O)[nH]c2=O)[C@H](O)[C@@H]1O [Compound 13, reference compound]
> 128 µg/mL

---

Biological target: MraY transferase purified from Aquifex aeolicus (MraYAA) (Aquifex aeolicus, UniProt O66465)
Sequence (O66465 whole entry): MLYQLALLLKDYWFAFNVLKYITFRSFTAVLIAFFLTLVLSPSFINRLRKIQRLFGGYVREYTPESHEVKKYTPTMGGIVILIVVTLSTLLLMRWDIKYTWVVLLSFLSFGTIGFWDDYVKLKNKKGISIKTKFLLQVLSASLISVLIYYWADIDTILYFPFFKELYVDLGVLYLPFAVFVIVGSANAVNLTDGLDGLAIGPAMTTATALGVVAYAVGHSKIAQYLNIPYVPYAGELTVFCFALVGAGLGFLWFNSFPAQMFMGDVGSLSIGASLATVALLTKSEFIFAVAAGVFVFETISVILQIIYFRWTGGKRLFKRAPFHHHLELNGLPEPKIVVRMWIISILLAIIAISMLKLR
Listing: pIC50 of selected molecules
On this scale, pIC50 is minus log10 of a concentration expressed in M (mol/L).

Query: pIC50; subject: CCCCCCCCCCNc1c(NCC(OC2OC(CN)C(O)C2O)C2OC(n3ccc(=O)[nH]c3=O)C(O)C2O)c(=O)c1=O (stereo not shown) [Compound 2]
4.75

Query: pIC50; subject: CCCCCCCCCCNC(=O)C(O)C(O)C(=O)NCC(OC1OC(CN)C(O)C1O)C1OC(n2ccc(=O)[nH]c2=O)C(O)C1O [(R,R)-3b]
5.86

Query: pIC50; subject: NC[C@H](O[C@@H]1O[C@H](CN)[C@@H](O)[C@H]1O)[C@H]1O[C@@H](n2ccc(=O)[nH]c2=O)[C@H](O)[C@@H]1O [Compound 12, reference compound]
4.30

Query: pIC50; subject: CCCCCCCCCCC(=O)NCC(OC1OC(CN)C(O)C1O)C1OC(n2ccc(=O)[nH]c2=O)C(O)C1O (stereo not shown) [Compound 4]
5.19

Query: pIC50; subject: CCCCCCCCCCNC(=O)NC[C@H](O[C@@H]1O[C@H](CN)[C@@H](O)[C@H]1O)[C@H]1O[C@@H](n2ccc(=O)[nH]c2=O)[C@H](O)[C@@H]1O [Compound 13, reference compound]
5.71

Others:
Query: pIC50; subject: CCCCCCCCCCNC(=O)C(O)C(O)C(=O)NCC(OC1OC(CN)C(O)C1O)C1OC(n2ccc(=O)[nH]c2=O)C(O)C1O [Compound (S,S)-3a]
6.43

Query: pIC50; subject: CCCCCCCCCCS(=O)(=O)NCC(OC1OC(CN)C(O)C1O)C1OC(n2ccc(=O)[nH]c2=O)C(O)C1O (stereo not shown) [Compound 5]
5.54
